Assay: MDCK-MDR1 permeability / efflux
Format: in vitro ADME
Settings: dog, MDCK-MDR1
OBSERVATION TYPE: Papp A→B (×10⁻⁶ cm/s)

In [3]: df
Out[3]:
                                   molecule  numeric_result
0  Cc1c(N2CCc3nc(C4(F)CC4)sc3C2)nc2nn(C)c(=O)n2c1C [Compound 70]            36.7

* * *

Biological target: UniProtKB P08173
Sequence (P08173 whole entry): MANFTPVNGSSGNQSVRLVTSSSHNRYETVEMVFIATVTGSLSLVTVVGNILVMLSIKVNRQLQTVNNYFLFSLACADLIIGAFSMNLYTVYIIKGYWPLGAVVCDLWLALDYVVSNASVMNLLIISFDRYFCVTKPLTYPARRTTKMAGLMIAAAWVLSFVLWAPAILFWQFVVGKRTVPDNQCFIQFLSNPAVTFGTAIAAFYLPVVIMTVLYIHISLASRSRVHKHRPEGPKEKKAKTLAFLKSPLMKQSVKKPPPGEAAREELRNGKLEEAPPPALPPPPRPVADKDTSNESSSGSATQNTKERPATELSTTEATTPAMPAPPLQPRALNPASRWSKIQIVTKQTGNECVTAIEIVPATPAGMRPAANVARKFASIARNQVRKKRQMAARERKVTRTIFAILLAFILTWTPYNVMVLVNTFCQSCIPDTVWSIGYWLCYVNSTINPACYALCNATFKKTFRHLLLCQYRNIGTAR
Assay: M4 cell-based functional assay (calcium mobilization)
Design: expressed in transfected cells
Conditions: CHO-K1 hM4-Gqi5 cells, calcium flux, increase in EC20 acetylcholine response
OBSERVATION TYPE: EC50 (nM)

                           substance_smiles  limit_operator  numeric_result
0           Cc1cc2nccnc2nc1N1CCc2nc(N)sc2C1               >           10000
1          Cc1nc2c(s1)CN(c1ncc(C#N)cc1C)CC2               =             371
2  Cc1c(C#N)nnc(N2CCc3nc(Nc4cccc(F)c4)sc3C2)c1C               >           10000
3  Cc1cc2nc(C(=O)NCc3cncs3)cc(=O)n2nc1N1CCc2nc(Br)sc2C1               =             418
4  Cc1cc2nc(C)c(F)c(=O)n2nc1N1CCc2nc(Br)sc2C1               =              94

Every entry's value here was drawn from patent US12139498B1.
